- Test system: Neuregulin-1 EGF-like domain
- Assay explanation: binders of neuregulin-1 EGF-like domain, primary screen, biochemical, small-molecule microarray, 635 nm fluorescence (AID 1081);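 note: binding of the protein to compounds printed on small-molecule microarray slides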
- Measurement conditions: small-molecule microarray binding, higher = more signal
Recorded composite z-score, one value per entry.
Measured endpoint: composite z-score

- Cc1ccc(S[C@]2(C(=O)NCCN3CCOCC3)CC(=O)N(Cc3ccccc3C(F)(F)F)[C@@H]2c2ccc(CO)cc2I)cc1: 1.23
- NC(=O)NCC#Cc1ccc2c(c1)[C@]1(C(=O)N2)[C@H](C(=O)O)[C@H]2C(=O)O[C@H](c3ccccc3)[C@H](c3ccccc3)N2[C@@H]1c1ccccc1OCCO: 1.01
- CC(C)CNC(=O)[C@@]1(c2ccc([N+](=O)[O-])cc2)CC(=O)N(C2CCCCC2)[C@@H]1c1ccc(CO)cc1I: 0.734
- C[C@]1(C(=O)NCCN2CCOCC2)c2ccccc2C(=O)N(Cc2ccc(OC(F)(F)F)cc2)[C@H]1c1ccc(CO)cc1: 1.02
